Please provide measured melting point for the entries that follow.

MOLECULE: COc1cccc2c1SCC(=O)C2
MEASURED_RESULT: 60 °C
--
MOLECULE: O=C(CCc1ccccc1[N+](=O)[O-])c1c(O)c2cccnc2n(-c2ccccc2)c1=O
MEASURED_RESULT: 238 to 240 °C
--
MOLECULE: CN(C)CCCOc1ccc(-c2nnc(CSCCOc3ccccc3)o2)nc1
MEASURED_RESULT: 47 to 49 °C
--
MOLECULE: O=C1c2ccccc2C(=O)N1CCN1CCC(=C2c3ccccc3C=Cc3ccccc32)CC1
MEASURED_RESULT: 190 °C
--
MOLECULE: CC(C)c1ccc2c(c1)NC(=O)CC(c1ccnc(C#N)c1)=N2
MEASURED_RESULT: 173 to 178 °C

Would you mind listing melting point for each of the following molecules?
1. Cc1ncc2c(c1OCC(=O)O)COC2c1ccccc1 (stereo not drawn)
2. CCOC(=O)COc1cc2c(c(Cl)c1Cl)C(=O)C(C)(C(C)C)C2Br (stereo not drawn)

// result
1. 220 °C
2. 83 to 85 °C

Please give melting point for each item listed below.
1. CCCN1CC(O)c2cc(OC)c(OC)c3c2C1Cc1cc(OC)c(OC)cc1-3 (stereo not drawn)
2. CCOC(=O)c1ccc(OCCC2CN(c3ccc(SC)nn3)CCO2)cc1 (stereo not drawn)
3. CC(C)(c1ccc(Oc2ccc(N3C(=O)C=CC3=O)cc2)cc1)c1ccc(C(C)(C)c2ccc(Oc3ccc(N4C(=O)C=CC4=O)cc3)cc2)cc1
4. C=Cc1ccc2sc(S(N)(=O)=O)cc2c1
5. O=C(CCC(=O)N1CCC[C@H]1C(=O)O)c1ccccc1
6. CC(=NO)C(C)(C)NCCCNC(C)(C)C(COCC(O)Cn1ccnc1[N+](=O)[O-])=NO (stereo not drawn)

// result
["153 to 154 °C", "111 °C", "214 to 216 °C", "168 to 170 °C", "95 to 97 °C", "72 to 73 °C"]

State the recorded melting point for every item in the following list.
1. NC(=O)NC(=O)c1nc(Cl)c(Cl)[nH]1
2. NC(=O)CNC(=O)c1cccc(-c2ccc(Cl)c3cc(Cc4ccc(F)c(F)c4)sc23)c1
3. COc1cc2c(c3c1OC(C)(C)C3)C(c1cccc(N(C(C)=O)c3cccnc3)c1)=NC(C)(C)C2
4. C=CC[C@H]1Cc2c(OCOC)cccc2C(O)O1 (stereo partly drawn)

// result
1. > 290 °C
2. 188 to 189 °C
3. 157 to 158 °C
4. 72 to 74 °C

// query Need melting point, item CC(C)(C)OC(=O)/C=C/c1cccc(-c2nc(=O)c3ccccc3s2)n1
// result 176 to 178 °C
